molecular target: C-X-C chemokine receptor type 4 (Homo sapiens); assay: Antagonist activity at wild-type human CXCR4 expressed in COS7 cells co-expressing chimeric galphai assessed as inhibition of CXCL12-induced [3H]inositol-phosphate accumulation measured after 90 mins in presence of Myo-[2-3H]-inositol by scintillation proximity assay; format: functional, cell-based, COS-7; conditions: read-out: EC50
Sequence (P61073 whole entry): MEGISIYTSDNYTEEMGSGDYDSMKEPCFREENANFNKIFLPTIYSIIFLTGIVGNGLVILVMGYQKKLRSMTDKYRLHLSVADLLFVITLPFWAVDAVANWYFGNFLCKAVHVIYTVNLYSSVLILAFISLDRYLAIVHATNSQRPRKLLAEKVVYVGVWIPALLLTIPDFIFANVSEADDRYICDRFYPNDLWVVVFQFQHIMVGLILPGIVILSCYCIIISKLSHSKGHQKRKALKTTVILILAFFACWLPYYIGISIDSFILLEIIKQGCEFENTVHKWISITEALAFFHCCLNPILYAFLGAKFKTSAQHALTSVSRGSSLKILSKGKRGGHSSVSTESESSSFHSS
EC50 for assorted compounds

Below are worked cases with known answers.
- Compound: "N=C(N)NCCCC[C@H]1C(=O)N(CCc2ccc3ccccc3c2)C[C@@H]2SC[C@H](CCNC(=N)N)C(=O)N21"
  Metric: "EC50"
  Reported Measurement: "> 100 µM"
- Compound: "N=C(N)NCCC[C@H]1C(=O)N(CCc2ccc3ccccc3c2)C[C@H]2SC[C@@H](CCNC(=N)N)C(=O)N21"
  Metric: "EC50"
  Reported Measurement: "> 100 µM"
- Compound: "N=C(N)NCCCC1CSC2CN(Cc3ccc4ccccc4c3Br)C(=O)[C@H](CCCNC(=N)N)N2C1=O (mixture of isomers)"
  Metric: "EC50"
  Reported Measurement: "61 µM"
- Compound: "N=C(N)NCCC[C@H]1C(=O)N(CCc2ccc3ccccc3c2)C[C@@H]2SC[C@H](CCNC(=N)N)C(=O)N21"
  Metric: "EC50"
  Reported Measurement: "> 100 µM"
- Compound: "N=C(N)NCCCC1CSC2CN(Cc3cccc4ccccc34)C(=O)[C@H](CCCNC(=N)N)N2C1=O (mixture of isomers)"
  Metric: "EC50"
  Reported Measurement: "> 100 µM"

**Query** Request the reported EC50 associated with `N=C(N)NCCCC[C@H]1C(=O)N(CCc2ccc3ccccc3c2)C[C@H]2SC[C@@H](CCCNC(=N)N)C(=O)N21`
**Result** > 100 µM

**Query** Also `N=C(N)NCCCC[C@H]1C(=O)N(CCc2ccc3ccccc3c2)C[C@H]2SC[C@@H](CCNC(=N)N)C(=O)N21` , if possible.
**Result** > 100 µM

**Query** Also `N=C(N)NCCCC[C@@H]1CS[C@@H]2CN(CCc3ccc4ccccc4c3)C(=O)[C@H](CCCNC(=N)N)N2C1=O` , if possible.
**Result** > 100 µM

**Query** Also N=C(N)NCCCC1CSC2CN(Cc3ccc4ccccc4c3)C(=O)[C@H](CCCNC(=N)N)N2C1=O (mixture of isomers) , if possible.
**Result** > 100 µM

**Query** Also `N=C(N)NCCCC[C@H]1CS[C@H]2CN(CCc3ccc4ccccc4c3)C(=O)[C@H](CCCNC(=N)N)N2C1=O` , if possible.
**Result** > 100 µM

**Query** Also `N=C(N)NCCCC[C@H]1C(=O)N(CCc2ccc3ccccc3c2)C[C@@H]2SC[C@H](CCCNC(=N)N)C(=O)N21` , if possible.
**Result** > 100 µM
